test: Stability of DNPs by DLS after storage at 5° C.; assay type: physicochemical; parameters: key: U: DLS curve showed unimodal size distribution; B: DLS curve showed bimodal size distribution; M: DLS curve showed multimodal size distribution; conditions: before storage; IAJD 4.0 mg/mL + Luc-mRNA 0.1 mg/mL, acetate buffer pH 4.00
outcome measure: Original size distribution type (DLS curve)

Past entries and their recorded results:
| compound | result |
| --- | --- |
| CCCCCCCCCCCCCCCCCCOc1cc(COC(=O)CCCN2CCN(C)CC2)cc(OCCCCCCCCCCCCCCC)c1 | (U) |
| CCCCCCCCCCCCCCCOc1cc(COC(=O)CCCN2CCN(CCO)CC2)cc(OCCCCCCCC)c1 | (U) |
| CCCCCCCCCCCCCCCOc1cc(COC(=O)CCCN2CCN(C)CC2)cc(OCCCCCCCCCCCC)c1 | (U) |
| CCCCCCCCCCCCCCCOc1cc(COC(=O)CCCN2CCN(CCO)CC2)cc(OCCCCCCCCCCCC)c1 | (B) |
| CCCCCCCCCCCCCOc1cc(COC(=O)CCCN2CCN(CCO)CC2)cc(OCCCCCCCCCCC)c1 | (B) |

// recorded Original size distribution type (DLS curve) for `CCCCCCCCCCCCCCCCOc1cc(COC(=O)CCCN2CCN(CCO)CC2)cc(OCCCCCCCCCCC)c1` : (B)

Looking up `CCCCCCCCCCCOc1cc(COC(=O)CCCN2CCN(CCO)CC2)cc(OCCCCCCCCCC)c1` , I see its Original size distribution type (DLS curve) listed as (U)

The reported Original size distribution type (DLS curve) of the compound CCCCCCCCCCCCCOc1cc(COC(=O)CCCN2CCN(C)CC2)cc(OCC(CC)CCCC)c1 (stereo not drawn) was (U)

Documented Original size distribution type (DLS curve) of `CCCCCCCCCCCCOc1cc(COC(=O)c2cc(OCCOCCOCCCC(=O)CCCN3CCCCC3)c(OCCOCCOCCOCc3ccccc3)c(OCCOCCOCCOC(=O)CCCN3CCCCC3)c2)cc(OCCCCCCCCCCCC)c1` : (U)

Memo: CCCCCCCCCCCCCCCOc1cc(COC(=O)CCCN2CCN(C)CC2)cc(OCC(CC)CCCC)c1 (stereo not drawn) , reported Original size distribution type (DLS curve): (U)

The reported value for CCCCCCCCCCCOc1cc(COC(=O)CCCN2CCN(CCO)CC2)cc(OCC(CC)CCCC)c1 (stereo not drawn) in terms of Original size distribution type (DLS curve) is (U)

Value of measured Original size distribution type (DLS curve) for the entry `CCCCCCCCCCCCCCCOc1cc(COC(=O)CCCN2CCN(C)CC2)cc(OCCCCCCCCCCCCCC)c1` : (U)

// Original size distribution type (DLS curve) value for `CCCCCCCCCCCCCCCCOc1cc(COC(=O)CCCN2CCN(C)CC2)cc(OCCCCCCCCCCCCC)c1` : (U)

Lab book: Original size distribution type (DLS curve) of `CCCCCCCCCCCCCCCCCOc1cc(COC(=O)CCCN2CCN(C)CC2)cc(OCCCCCCCCCCC)c1` noted as (U)

Per the records, this compound ( `CCCCCCCCCCCCCCOc1cc(CNC(=O)CCCN2CCN(C)CC2)cc(OCCCCCCCCCCC)c1` ) has Original size distribution type (DLS curve) equal to (B)

###

assay: Stability of DNPs by DLS after storage at 5° C.; assay type: physicochemical; design: key: U: DLS curve showed unimodal size distribution; B: DLS curve showed bimodal size distribution; M: DLS curve showed multimodal size distribution; settings: after 35 days at 5° C.
outcome measure: Size distribution type (DLS curve)

Consider the following illustrative entries.
| smiles structure | result |
| --- | --- |
| CCCCCCCCCCCCCCCCCCOc1cc(COC(=O)CCCN2CCN(CCO)CC2)cc(OCCCCCCCCCCCCCCC)c1 | (B) |
| CCCCCCCCCCCCCCCOc1cc(COC(=O)CCCN2CCN(CCO)CC2)cc(OCCCCCCCC)c1 | (B) |
| CCCCCCCCCCCCCCCCCCOc1cc(COC(=O)CCCN2CCN(C)CC2)cc(OCCCCCCCCCCCCCCC)c1 | (U) |
| CCCCCCCCCCCCCCCCCOc1cc(COC(=O)CCCN2CCN(C)CC2)cc(OCCCCCCCCCCCCCCC)c1 | (U) |

Next, consider the following compound.
// recorded Size distribution type (DLS curve) for `CCCCCCCCCCCCCCCCCOc1cc(COC(=O)CCCN2CCN(CCO)CC2)cc(OCCCCCCCCCCCCCCC)c1` : (U)

###

experiment: Stability of DNPs by DLS after storage at 5° C.; type: physicochemical; conditions: after 35 days at 5° C.; IAJD 4.0 mg/mL + Luc-mRNA 0.1 mg/mL, acetate buffer
outcome measure: Size (d, nm)

In the examples that follow, each entry is paired with its recorded Size (d, nm).
| smiles structure | unit spec | Size (d, nm) |
| --- | --- | --- |
| CCCCCCCCCCCCCCCCCOc1cc(COC(=O)CCCN2CCN(CCO)CC2)cc(OCCCCCCCCCCCCCCC)c1 | nm | 253 |
| CCCCCCCCCCCCCCCCCOc1cc(COC(=O)CCCN2CCN(C)CC2)cc(OCCCCCCCCCCCCCCC)c1 | nm | 271 |

P. CCCCCCCCCCCCCCCCCCOc1cc(COC(=O)CCCN2CCN(CCO)CC2)cc(OCCCCCCCCCCCCCCC)c1
Q. CCCCCCCCCCCCCCCCCCOc1cc(COC(=O)CCCN2CCN(C)CC2)cc(OCCCCCCCCCCCCCCC)c1
R. CCCCCCCCCCCCCCCOc1cc(COC(=O)CCCN2CCN(CCO)CC2)cc(OCCCCCCCC)c1
Query: Please list these compounds in decreasing order of Size (d, nm). Labels, requested order.
Reply: P, Q, R

###

assay: DLS size of dendrimersomes assembled from glycerol-JDs in water at different concentrations; type: physicochemical; conditions: JD 0.5 mg·mL−1 in water
Listing of recorded PDI by entry.
// keep it numeric: no unit symbol after the value

A selection of reference data follows.
| compound | numeric readout |
| --- | --- |
| CCCCCCCCCCCCOc1cc(OCCCCCCCCCCCC)cc(C(=O)OCC(C)(COC(=O)c2cc(OCCCCCCCCCCCC)cc(OCCCCCCCCCCCC)c2)C(=O)OC[C@@H](COC(=O)c2cc(OCCOCCOCCOC)c(OCCOCCOCCOC)c(OCCOCCOCCOC)c2)OC(=O)c2cc(OCCOCCOCCOC)c(OCCOCCOCCOC)c(OCCOCCOCCOC)c2)c1 [Compound 2R, (3,5)-12G1-BMPA-GC-(R)-(3,4,5)-3EO-G1] | 0.497 |
| CCCCCCCCCCCCOc1cc(OCCCCCCCCCCCC)cc(C(=O)OC[C@@H](COC(=O)C(C)(COC(=O)c2cc(OCCOCCOCCOC)c(OCCOCCOCCOC)c(OCCOCCOCCOC)c2)COC(=O)c2cc(OCCOCCOCCOC)c(OCCOCCOCCOC)c(OCCOCCOCCOC)c2)OC(=O)c2cc(OCCCCCCCCCCCC)cc(OCCCCCCCCCCCC)c2)c1 [Compound 1S, (3,5)-12G1-GC-(S)-BMPA-(3,4,5)-3EO-G1] | 0.438 |
| CCCCCCCCCCCCOc1cc(OCCCCCCCCCCCC)cc(C(=O)OCC(C)(COC(=O)c2cc(OCCCCCCCCCCCC)cc(OCCCCCCCCCCCC)c2)C(=O)OC(COC(=O)c2cc(OCCOCCOCCOC)c(OCCOCCOCCOC)c(OCCOCCOCCOC)c2)COC(=O)c2cc(OCCOCCOCCOC)c(OCCOCCOCCOC)c(OCCOCCOCCOC)c2)c1 [Compound 4] | 0.183 |
| CCCCCCCCCCCCOc1cc(OCCCCCCCCCCCC)cc(C(=O)OCC(COC(=O)C(C)(COC(=O)c2cc(OCCOCCOCCOC)c(OCCOCCOCCOC)c(OCCOCCOCCOC)c2)COC(=O)c2cc(OCCOCCOCCOC)c(OCCOCCOCCOC)c(OCCOCCOCCOC)c2)OC(=O)c2cc(OCCCCCCCCCCCC)cc(OCCCCCCCCCCCC)c2)c1 (racemic) [Compound 1rac, (3,5)-12G1-GC-(rac)-BMPA-(3,4,5)-3EO-G1] | 0.240 |
| CCCCCCCCCCCCOc1cc(OCCCCCCCCCCCC)cc(C(=O)OCC(C)(COC(=O)c2cc(OCCCCCCCCCCCC)cc(OCCCCCCCCCCCC)c2)C(=O)OC[C@H](COC(=O)c2cc(OCCOCCOCCOC)c(OCCOCCOCCOC)c(OCCOCCOCCOC)c2)OC(=O)c2cc(OCCOCCOCCOC)c(OCCOCCOCCOC)c(OCCOCCOCCOC)c2)c1 [Compound 2S, (3,5)-12G1-BMPA-GC-(S)-(3,4,5)-3EO-G1] | 0.295 |

Record CCCCCCCCCCCCOc1cc(OCCCCCCCCCCCC)cc(C(=O)OCC(COC(=O)c2cc(OCCCCCCCCCCCC)cc(OCCCCCCCCCCCC)c2)OC(=O)C(C)(COC(=O)c2cc(OCCOCCOCCOC)c(OCCOCCOCCOC)c(OCCOCCOCCOC)c2)COC(=O)c2cc(OCCOCCOCCOC)c(OCCOCCOCCOC)c(OCCOCCOCCOC)c2)c1 [Compound 3] . Reported PDI: 0.152

Sample CCCCCCCCCCCCOc1cc(OCCCCCCCCCCCC)cc(C(=O)OC[C@H](COC(=O)C(C)(COC(=O)c2cc(OCCOCCOCCOC)c(OCCOCCOCCOC)c(OCCOCCOCCOC)c2)COC(=O)c2cc(OCCOCCOCCOC)c(OCCOCCOCCOC)c(OCCOCCOCCOC)c2)OC(=O)c2cc(OCCCCCCCCCCCC)cc(OCCCCCCCCCCCC)c2)c1 [Compound 1R, (3,5)-12G1-GC-(R)-BMPA-(3,4,5)-3EO-G1] ; PDI observed: 0.326
